Where do these numbers come from? They come from ChEMBL document CHEMBL4028837.

Organism: Homo sapiens
test: Activation of HDAC deacetylation activity in human HeLa nuclear extract at 50 uM using AMC-Fluor-de-Lys-HDAC8 as substrate measured after 5 mins by reverse phase HPLC method relative to control
So basically: fold change (FC) at 0.9 or higher? That is true. Lower than 0.9? That is false.

Observe how each entry below is paired with its result.
>  <smiles.string>
O=C(Nc1cccc(C(F)(F)F)c1)C(F)(F)F

>  <group.label>
true

$$$$
>  <smiles.string>
CC(=O)Nc1ccccc1C(F)(F)F

>  <group.label>
true

$$$$
>  <smiles.string>
CC(C)(C)OC(=O)N[C@@H](CCCCNC(=O)CBr)C(=O)Nc1ccccc1

>  <group.label>
true

$$$$
>  <smiles.string>
O=C(Nc1ccc(C(F)(F)F)cc1)C(F)(F)F

>  <group.label>
true

$$$$

input: Could you tell me if the measured fold change (FC) of O=C(Nc1ccccc1C(F)(F)F)C(F)(F)F reaches 0.9 or more?
output: false

input: Could you tell me if the measured fold change (FC) of O=C(NC(=S)Nc1ccccc1)c1ccccc1 reaches 0.9 or more?
output: false

input: Could you tell me if the measured fold change (FC) of CC(=O)Nc1ccc(C(F)(F)F)cc1 reaches 0.9 or more?
output: true

###

# fold change (FC) per record follows
experimental.target: Histone deacetylase 8 (Homo sapiens) (UniProt Q9BY41)
test: Activation of human HDAC8 deacetylation activity at 50 uM using AMC less CH3CONH-FG-(Nepsilon-acetyl-lysine)-FSW-CONH2 as substrate measured after 10 mins by reverse phase HPLC method relative to control
Give a plain numeric answer without units written out.

>  <smiles.string>
O=C(Nc1ccc(C(F)(F)F)cc1)C(F)(F)F

>  <reported.property>
fold change (FC)

>  <test.result>
1.4

$$$$
>  <smiles.string>
CC(=O)Nc1cccc(C(F)(F)F)c1

>  <reported.property>
fold change (FC)

>  <test.result>
1.3

$$$$
>  <smiles.string>
CC(=O)Nc1ccc(C(F)(F)F)cc1

>  <reported.property>
fold change (FC)

>  <test.result>
1.4

$$$$

input: Read the entry CC(=O)Nc1ccccc1C(F)(F)F and write its reported fold change (FC).
output: 1.5

input: Read the entry O=C(Nc1cccc(C(F)(F)F)c1)C(F)(F)F and write its reported fold change (FC).
output: 2.7

input: Read the entry O=C(Nc1ccccc1C(F)(F)F)C(F)(F)F and write its reported fold change (FC).
output: 1.2

input: Read the entry CC(C)(C)OC(=O)N[C@@H](CCCCNC(=O)CBr)C(=O)Nc1ccccc1 and write its reported fold change (FC).
output: 5.6

input: Read the entry O=C(NC(=S)Nc1ccccc1)c1ccccc1 and write its reported fold change (FC).
output: 0.5

###

experimental.target: UniProt Q9BY41
Sequence (whole entry): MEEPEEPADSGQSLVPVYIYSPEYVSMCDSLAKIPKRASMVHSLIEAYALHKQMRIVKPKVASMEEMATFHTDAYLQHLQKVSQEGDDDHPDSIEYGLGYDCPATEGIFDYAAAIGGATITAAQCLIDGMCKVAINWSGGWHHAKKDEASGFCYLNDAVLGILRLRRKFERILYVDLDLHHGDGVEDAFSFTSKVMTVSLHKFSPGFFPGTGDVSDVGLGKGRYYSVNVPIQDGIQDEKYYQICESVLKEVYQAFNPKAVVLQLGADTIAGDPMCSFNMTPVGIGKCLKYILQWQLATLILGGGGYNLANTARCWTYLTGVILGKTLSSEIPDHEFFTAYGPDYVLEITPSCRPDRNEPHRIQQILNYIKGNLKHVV
test: Activation of human HDAC8 deacetylation activity at 50 uM using AMC-Fluor-de-Lys-HDAC8 as substrate measured after 10 mins by reverse phase HPLC method relative to control
So basically: fold change (FC) at 2 or higher? That is label 1. Lower than 2? That is label 0.

Observe how each entry below is paired with its result.
>  <smiles.string>
O=C(Nc1ccccc1C(F)(F)F)C(F)(F)F

>  <group.label>
label 0

$$$$
>  <smiles.string>
CC(=O)Nc1ccccc1C(F)(F)F

>  <group.label>
label 0

$$$$
>  <smiles.string>
O=C(NC(=S)Nc1ccccc1)c1ccccc1

>  <group.label>
label 1

$$$$
>  <smiles.string>
CC(=O)Nc1ccc(C(F)(F)F)cc1

>  <group.label>
label 0

$$$$
>  <smiles.string>
O=C(Nc1cccc(C(F)(F)F)c1)C(F)(F)F

>  <group.label>
label 0

$$$$

input: Could you tell me if the measured fold change (FC) of CC(=O)Nc1cccc(C(F)(F)F)c1 reaches 2 or more?
output: label 0

input: Could you tell me if the measured fold change (FC) of O=C(Nc1ccc(C(F)(F)F)cc1)C(F)(F)F reaches 2 or more?
output: label 0

input: Could you tell me if the measured fold change (FC) of CC(C)(C)OC(=O)N[C@@H](CCCCNC(=O)CBr)C(=O)Nc1ccccc1 reaches 2 or more?
output: label 1

###

Species: Homo sapiens
test: Activation of HDAC deacetylation activity in human HeLa nuclear extract at 50 uM using AMC less CH3CONH-RH-(Nepsilon-acetyl-lysine)-(Nepsilon-acetyl-lysine)-CONH2 as substrate measured after 10 mins by reverse phase HPLC method relative to control
So basically: fold change (FC) at 0.8 or higher? That is yes (1). Lower than 0.8? That is no (0).

Observe how each entry below is paired with its result.
>  <smiles.string>
CC(=O)Nc1ccccc1C(F)(F)F

>  <group.label>
yes (1)

$$$$
>  <smiles.string>
O=C(Nc1ccccc1C(F)(F)F)C(F)(F)F

>  <group.label>
yes (1)

$$$$
>  <smiles.string>
CC(C)(C)OC(=O)N[C@@H](CCCCNC(=O)CBr)C(=O)Nc1ccccc1

>  <group.label>
yes (1)

$$$$
>  <smiles.string>
CC(=O)Nc1ccc(C(F)(F)F)cc1

>  <group.label>
yes (1)

$$$$
>  <smiles.string>
O=C(Nc1ccc(C(F)(F)F)cc1)C(F)(F)F

>  <group.label>
no (0)

$$$$

input: Could you tell me if the measured fold change (FC) of O=C(Nc1cccc(C(F)(F)F)c1)C(F)(F)F reaches 0.8 or more?
output: no (0)

input: Could you tell me if the measured fold change (FC) of O=C(NC(=S)Nc1ccccc1)c1ccccc1 reaches 0.8 or more?
output: no (0)
